biological target: α1D adrenoceptor (aorta) (Rattus norvegicus, UniProt P23944); construct: Isolated tissues were mounted in organ bath containing Krebs Henseleit buffer; from tissue; host or cells: isolated rat aorta; test: In vitro functional assay, isolated aorta, norepinephrine contraction; assay type: cell-based; details: read-out: α Adrenoceptor Subtype (pKB) α1D (converted)
Sequence (P23944 whole entry): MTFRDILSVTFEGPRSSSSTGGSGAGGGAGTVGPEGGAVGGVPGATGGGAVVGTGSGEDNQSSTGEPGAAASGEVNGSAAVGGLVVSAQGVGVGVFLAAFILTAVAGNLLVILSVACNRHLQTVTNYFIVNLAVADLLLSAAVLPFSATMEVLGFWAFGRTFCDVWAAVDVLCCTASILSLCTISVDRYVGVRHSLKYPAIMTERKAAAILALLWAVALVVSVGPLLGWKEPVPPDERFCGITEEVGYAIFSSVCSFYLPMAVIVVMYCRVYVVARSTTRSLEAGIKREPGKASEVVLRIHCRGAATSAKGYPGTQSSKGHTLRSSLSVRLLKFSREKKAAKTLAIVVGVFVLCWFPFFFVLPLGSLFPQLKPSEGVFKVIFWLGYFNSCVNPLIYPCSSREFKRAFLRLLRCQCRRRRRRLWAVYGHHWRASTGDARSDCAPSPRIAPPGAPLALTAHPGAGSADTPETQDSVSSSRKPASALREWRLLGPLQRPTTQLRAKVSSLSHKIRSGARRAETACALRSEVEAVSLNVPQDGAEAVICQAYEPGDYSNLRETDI
QUANTITY_MEASURED: Kb (nM)

1) Cl.O=C1C2CC=CCC2C(=O)N1CCCN1CCN(c2ccccc2OCC(F)(F)F)CC1 (stereo not shown) [compound 02, hydrochloride]; 0.0316
2) CC(C)Oc1ccccc1N1CCN(CCCN2C(=O)C3CCC(O)CC3C2=O)CC1 (stereo not shown); 1.07
3) CCOc1ccccc1N1CC[N+]([O-])(CCCN2C(=O)C3CC=CCC3C2=O)CC1 (stereo not shown); 81.3
4) CCOc1ccccc1N1CCN(CCCN2C(=O)C3CC(O)C(O)CC3C2=O)CC1 (stereo not shown); 6.92

----------
The entries below come with measured Selectivity α1B/α1A values attached.
molecular target: α1A adrenoceptor (prostate) (Rattus norvegicus); construct: from tissue; host or cells: isolated prostate tissue; experiment: In vitro functional assay, isolated prostate, phenylepinephrine contraction; assay type: cell-based; settings: functional, from pKB
Where a name gives a salt, the structure may show the parent alone.
QUANTITY_MEASURED: Selectivity α1B/α1A

1. CC(C)Oc1ccccc1N1CC[N+]([O-])(CCCN2C(=O)C3CC=CCC3C2=O)CC1 (centres unmarked); 0.24
2. CC(C)Oc1ccc(O)cc1N1CCN(CCCN2C(=O)C3CC=CCC3C2=O)CC1.Cl (centres unmarked); 15
3. CC(C)Oc1ccccc1N1CCN(CCCN2C(=O)C3CC(O)C(Cl)CC3C2=O)CC1.Cl (centres unmarked); 45
4. Cl.O=C1C2CCC(O)CC2C(=O)N1CCCN1CCN(c2ccccc2OCC(F)(F)F)CC1 (centres unmarked); 18
5. Cl.O=C1CCCC(=O)N1CCCN1CCN(c2ccccc2O)CC1; 3.8
6. CCOc1ccccc1N1CCN(CCCN2C(=O)C3CC(O)C(Cl)CC3C2=O)CC1.Cl (centres unmarked); 347
7. CC(C)Oc1cc([N+](=O)[O-])ccc1N1CCN(CCCN2C(=O)C3CC=CCC3C2=O)CC1 (centres unmarked) [Compound No. 25, hydrochloride]; 22
8. CCOc1ccccc1N1CCN(CCCN2C(=O)C3CC(O)C(O)CC3C2=O)CC1 (centres unmarked); 60

----------
Biological target: α1B adrenoceptor (spleen) (Rattus norvegicus, UniProt P15823)
Construct: Isolated tissues were mounted in organ bath containing Krebs Henseleit buffer; from tissue; host or cells: isolated rat spleen
Test: In vitro functional assay, isolated spleen, phenylepinephrine contraction
Type: cell-based
Details: read-out: α Adrenoceptor Subtype (pKB) α1B (converted)
Method: In order to study selectivity of action of these compounds towards different a-adrenoceptor subtypes, the ability of these compounds to antagonise (α1D) prostate (α1A) and spleen (α1B) was studied. Aorta and spleen tissues were isolated from urethane anaesthetized (1.5 g/kg) male wister rats. […] Contractile response was monitored using a force displacement transducer and recorded on chart recorders. […] Antagonist affinity was calculated and expressed as pKB values in Table II.
Where a name gives a salt, the structure may show the parent alone.
QUANTITY_MEASURED: Kb (nM)

1) CC(C)Oc1ccccc1N1CCN(CC(O)CN2C(=O)C3CC=CCC3C2=O)CC1.Cl (stereo not shown) [compound 07, hydrochloride]; 15.8
2) CC(C)Oc1ccccc1N1CCN(CCCN2C(=O)C3CC(O)C(O)CC3C2=O)CC1 (stereo not shown) [Compound No. 23]; 7.41
3) CC(C)Oc1ccccc1N1CCN(CCCN2C(=O)C3CC(O)C(Cl)CC3C2=O)CC1.Cl (stereo not shown) [Compound No. 28, hydrochloride]; 43.7
4) O=C1CCCC(=O)N1CCCN1CCN(c2ccccc2OCC(F)(F)F)CC1; 0.275
5) CC(C)Oc1ccccc1N1CCN(CCCN2C(=O)C3CC(O)C(O)CC3C2=O)CC1 (stereo not shown) [Compound No. 13]; 55
6) CC(C)Oc1ccccc1N1CC[N+]([O-])(CCCN2C(=O)C3CC=CCC3C2=O)CC1 (stereo not shown); 1.02
7) CCOc1ccccc1N1CCN(CC(O)CN2C(=O)C3CC=CCC3C2=O)CC1 (stereo not shown) [Compound No. 11, hydrochloride]; 0.759
8) CC(C)Oc1cc([N+](=O)[O-])ccc1N1CCN(CCCN2C(=O)C3CC=CCC3C2=O)CC1 (stereo not shown) [Compound No. 25, hydrochloride]; 100
9) CC(C)Oc1ccccc1[N+]1([O-])CC[N+]([O-])(CCCN2C(=O)C3CC=CCC3C2=O)CC1 (stereo not shown); 23.4
10) Cl.O=C1C2CC=CCC2C(=O)N1CCCN1CCN(c2ccccc2OC2CCCC2)CC1 (stereo not shown) [Compound No. 43, hydrochloride]; 12.6
11) Cl.O=C1C2CCC(O)CC2C(=O)N1CCCN1CCN(c2ccccc2OCC(F)(F)F)CC1 (stereo not shown) [Compound No. 33, hydrochloride]; 11
12) CC(C)Oc1ccccc1N1CCN(CCCN2C(=O)C3CCC(O)CC3C2=O)CC1 (stereo not shown); 102
13) CCOc1ccccc1N1CCN(CCCN2C(=O)C3CC(O)C(O)CC3C2=O)CC1 (stereo not shown); 100

----------
target: α1A adrenoceptor (prostate) (Rattus norvegicus, UniProt P43140); construct: from tissue; host or cells: isolated prostate tissue; assay: In vitro functional assay, isolated prostate, phenylepinephrine contraction; assay type: cell-based; conditions: rat prostate, phenylepinephrine; read-out: α Adrenoceptor Subtype (pKB) α1A (converted)
Sequence (P43140 whole entry): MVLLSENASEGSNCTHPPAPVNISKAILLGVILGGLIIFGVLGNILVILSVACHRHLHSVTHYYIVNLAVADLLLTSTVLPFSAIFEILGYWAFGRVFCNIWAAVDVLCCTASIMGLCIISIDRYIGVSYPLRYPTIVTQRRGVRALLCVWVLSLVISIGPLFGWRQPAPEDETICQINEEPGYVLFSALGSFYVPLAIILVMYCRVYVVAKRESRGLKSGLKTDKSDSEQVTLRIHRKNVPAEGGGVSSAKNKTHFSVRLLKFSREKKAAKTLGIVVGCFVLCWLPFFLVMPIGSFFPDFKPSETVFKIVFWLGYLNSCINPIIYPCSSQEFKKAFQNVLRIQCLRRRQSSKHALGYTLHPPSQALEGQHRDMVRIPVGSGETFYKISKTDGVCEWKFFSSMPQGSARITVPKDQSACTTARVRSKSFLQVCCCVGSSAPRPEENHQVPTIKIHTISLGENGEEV
Where a name gives a salt, the structure may show the parent alone.
Define the label as t when Kb is strictly less than 1 nM and as f in all remaining cases.

1. CC(C)Oc1ccccc1N1CCN(CCCN2C(=O)C3CC(O)C(O)CC3C2=O)CC1 (stereo not drawn) [Compound No. 23]; f
2. Cl.O=C1CCCC(=O)N1CCCN1CCN(c2ccccc2O)CC1 [compound 01, hydrochloride]; f
3. O=C1CCCC(=O)N1CCCN1CCN(c2ccccc2OCC(F)(F)F)CC1; t
4. Cl.O=C1C2CC=CCC2C(=O)N1CCCN1CCN(c2ccccc2OC2CCCC2)CC1 (stereo not drawn) [Compound No. 43, hydrochloride]; f
5. CC(C)Oc1ccccc1N1CCN(CCCN2C(=O)C3CCC(O)CC3C2=O)CC1 (stereo not drawn); t
6. CC(=O)OC1C=CCC2C(=O)N(CCCN3CCN(c4ccccc4OC(C)C)CC3)C(=O)C12 (stereo not drawn) [Compound No. 40, hydrochloride]; t
7. CC(C)Oc1ccccc1[N+]1([O-])CC[N+]([O-])(CCCN2C(=O)C3CC=CCC3C2=O)CC1 (stereo not drawn); f
8. CC(C)Oc1ccccc1N1CCN(CC(O)CN2C(=O)C3CC=CCC3C2=O)CC1.Cl (stereo not drawn) [compound 07, hydrochloride]; f
9. CC(C)Oc1ccccc1N1CCN(CCCN2C(=O)C3CC(O)C(O)CC3C2=O)CC1 (stereo not drawn) [Compound No. 13]; f
10. CC(C)Oc1cc([N+](=O)[O-])ccc1N1CCN(CCCN2C(=O)C3CC=CCC3C2=O)CC1 (stereo not drawn) [Compound No. 25, hydrochloride]; f
11. CC(C)Oc1ccc(O)cc1N1CCN(CCCN2C(=O)C3CC=CCC3C2=O)CC1.Cl (stereo not drawn) [Compound No. 21, hydrochloride]; f
12. CCOc1ccccc1N1CCN(CCCN2C(=O)C3CC(O)C(O)CC3C2=O)CC1 (stereo not drawn); f
13. Cl.O=C1C2CCC(O)CC2C(=O)N1CCCN1CCN(c2ccccc2OCC(F)(F)F)CC1 (stereo not drawn) [Compound No. 33, hydrochloride]; t
14. CCOc1ccccc1[N+]1([O-])CC[N+]([O-])(CCCN2C(=O)C3CC=CCC3C2=O)CC1 (stereo not drawn); f
15. Cl.O=C1C2CC=CCC2C(=O)N1CCCN1CCN(c2ccccc2OCC(F)(F)F)CC1 (stereo not drawn) [compound 02, hydrochloride]; t

----------
# collection of log10(Ki) values tested on α1B adrenoceptor (Rattus norvegicus, UniProt P15823)
# Sequence (P15823 whole entry): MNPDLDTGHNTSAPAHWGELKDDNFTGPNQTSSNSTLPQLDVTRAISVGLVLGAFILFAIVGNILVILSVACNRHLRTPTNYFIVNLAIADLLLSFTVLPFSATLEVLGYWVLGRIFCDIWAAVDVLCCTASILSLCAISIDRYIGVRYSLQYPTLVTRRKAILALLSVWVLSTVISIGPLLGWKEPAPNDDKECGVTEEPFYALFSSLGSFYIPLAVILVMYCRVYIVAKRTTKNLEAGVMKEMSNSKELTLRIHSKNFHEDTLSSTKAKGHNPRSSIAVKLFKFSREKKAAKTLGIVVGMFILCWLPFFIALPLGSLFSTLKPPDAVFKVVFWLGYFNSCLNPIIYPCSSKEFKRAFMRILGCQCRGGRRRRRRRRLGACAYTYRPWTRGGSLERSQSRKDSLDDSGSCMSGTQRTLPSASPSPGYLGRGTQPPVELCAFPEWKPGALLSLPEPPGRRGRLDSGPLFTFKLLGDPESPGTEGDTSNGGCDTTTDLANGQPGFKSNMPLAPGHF
Where a name gives a salt, the structure may show the parent alone.
QUANTITY_MEASURED: log10(Ki) (log10 of the value in nM)

1. Cl.O=C1C2CC=CCC2C(=O)N1CCCN1CCN(c2ccccc2OCC(F)(F)F)CC1 (stereo not shown) [compound 02, hydrochloride]; 1.43
2. CCOc1ccccc1N1CCN(CCCN2C(=O)C3CC(O)C(O)CC3C2=O)CC1 (stereo not shown) [Compound No. 66, hydrochloride]; 2.22
3. CC(C)Oc1ccccc1N1CCN(CCCN2C(=O)C3=CC=CCC3C2=O)CC1.Cl (stereo not shown) [Compound No. 59, hydrochloride]; 1.68
4. COc1ccccc1N1CCN(CCCN2C(=O)C3C(c4ccccc4)C=CC(c4ccccc4)C3C2=O)CC1.Cl (stereo not shown) [Compound No. 78, hydrochloride]; 2.52
5. CC(C)Oc1ccccc1N1CCN(CCCN2C(=O)C3CC=CC(O)C3C2=O)CC1.Cl (stereo not shown) [Compound No. 41, hydrochloride]; 2.02
6. CC(C)Oc1c(O)cccc1N1CCN(CCCN2C(=O)C3CC=CCC3C2=O)CC1 (stereo not shown) [Compound No. 35, hydrochloride]; 2.76

Origin of measurements: patent US20050228180A1
